biological target: cAMP-dependent protein kinase catalytic subunit alpha (Homo sapiens) (UniProt P17612); conditions: at 0.1 µM;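 note: reported value is the mean percent inhibition of PKA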
Measured Attribute: inhibition
Express the reported value numerically, then name its unit.

Cc1ccc(C(=O)NC2CCC2)cc1-c1ccc(C(=O)NCC2CC2)cc1 1.15%

Give measured inhibition for every item shown.
1. O=C(NCC1CC1)c1ccc(-c2cccc(C(=O)NC3CC3)c2)cc1
2. Fc1ccc(-c2ncn(CCCN3CCOCC3)c2-c2ccncc2)cc1
3. COc1cc2ncn(-c3cc(OCc4cccs4)c(C(N)=O)s3)c2cc1OC
4. Cc1ccc(NC(=O)c2ccoc2)cc1-c1ccc(C(=O)NCC2CC2)cc1
5. CNC(=O)c1cncc(/C=C/c2c(C)cccc2C)c1
6. COc1cccc(/C=N/Nc2ncnc3c2cnn3-c2cccc(OC)c2)c1
7. NCc1ccc(-n2c(-c3nonc3N)nc3cnccc32)cc1

Marked response:
1: 0.93%; 2: 0.23%; 3: -0.85%; 4: 2.1%; 5: -2.91%; 6: 1.27%; 7: 10.4%

Give measured inhibition for every item shown.
1. Cc1nnc(-c2ccc(C)c(-c3ccc(C(=O)NCc4ccc(Cl)cc4)cc3)c2)o1
2. COc1cc(C)c(N(C)C(=O)CN(C)C)cc1Nc1nc(Nc2cccc(F)c2C(N)=O)c2cc[nH]c2n1

Marked response:
["-1.01%", "-0.93%"]

Give measured inhibition for every item shown.
1. O=C(Nc1n[nH]c2cc(-c3cc(F)ccc3F)ccc12)C1CC1
2. CN(C)CCCNc1nccc(-c2c(-c3ccc(F)cc3)nn3cc(C(F)(F)F)ccc23)n1
3. NS(=O)(=O)c1ccc(N/N=C2\C(=O)Nc3ccc(-c4cnco4)cc32)cc1
4. O=C1Nc2ccc(I)cc2C1=Cc1cc(Br)c(O)c(Br)c1
5. O=C(Nc1ccc(Oc2ccc3[nH]c(NC(=O)c4ccccc4)nc3c2)cc1)Nc1cc(C(F)(F)F)ccc1F
6. CCC(=O)Nc1ccc(C)c(-c2ccc(C(=O)NCC3CC3)cc2)c1

Marked response:
1. 2.32%
2. -2.76%
3. -3.28%
4. 2.28%
5. 1.01%
6. 2.1%

Give measured inhibition for every item shown.
1. COc1cc(Nc2ncc3c(C)nc(-c4cccc(Oc5ccccc5)c4)n3n2)cc(OC)c1OC
2. NC(=O)c1cc(-c2ccncc2)cc(-c2ccccc2)c1N
3. FC(F)(F)c1cccc(Nc2nccc(-c3cnn4nc(-c5ccccc5)ccc34)n2)c1
4. C/C(Nc1ccc(S(N)(=O)=O)cc1)=C1/C(=O)Nc2ccccc21

Marked response:
1. 0.88%
2. 2.43%
3. 1.63%
4. -1.19%

Origin of values: ChEMBL document CHEMBL1961873
